All values here come from ChEMBL document CHEMBL2218924.

- target desc: Mitogen-activated protein kinase 9 (Homo sapiens) (UniProt P45984)
- Sequence (P45984 whole entry, looked up): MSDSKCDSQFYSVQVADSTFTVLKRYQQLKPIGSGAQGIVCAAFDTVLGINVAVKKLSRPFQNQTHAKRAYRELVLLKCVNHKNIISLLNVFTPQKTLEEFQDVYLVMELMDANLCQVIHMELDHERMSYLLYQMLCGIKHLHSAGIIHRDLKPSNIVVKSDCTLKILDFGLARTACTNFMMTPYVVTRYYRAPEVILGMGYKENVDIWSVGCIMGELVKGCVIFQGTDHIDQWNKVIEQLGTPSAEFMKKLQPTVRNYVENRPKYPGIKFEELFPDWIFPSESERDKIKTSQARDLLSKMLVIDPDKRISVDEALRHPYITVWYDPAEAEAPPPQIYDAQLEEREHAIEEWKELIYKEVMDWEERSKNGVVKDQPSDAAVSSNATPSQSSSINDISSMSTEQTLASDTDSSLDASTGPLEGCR
- applied conditions: at 10 µM
- Description: Millipore: Percentage of residual kinase activity of MAPK9 at 10uM relative to control. Control inhibitor: Jnk Inhibitor II at 100.0uM. Buffer: 50 mM Tris pH 7.5, 0.1 mM EGTA, 0.1% ?-mercaptoethanol
Catalogue of compounds with associated residual activity
State the answer as a number, implicitly in %.

The cases that follow already have their residual activity on record.
>  <record smiles>
O=C1NC(=O)c2cc(Nc3ccc(F)cc3)c(Nc3ccc(F)cc3)cc21

>  <residual activity, %>
84

$$$$
>  <record smiles>
O=c1c2ccccc2[nH]c(=S)n1CCN1CCC(=C(c2ccc(F)cc2)c2ccc(F)cc2)CC1

>  <residual activity, %>
101

$$$$
>  <record smiles>
Cn1cnc2cc3c(Nc4cccc(Br)c4)ncnc3cc21

>  <residual activity, %>
94

$$$$
>  <record smiles>
Oc1n[nH]c2nnc(-c3c(-c4ccccc4)nn4ccccc34)cc12

>  <residual activity, %>
92

$$$$

Any idea what its residual activity is? The compound is CO[C@@H]1[C@H](N(C)C(=O)c2ccccc2)C[C@H]2O[C@]1(C)n1c3ccccc3c3c4c(c5c6ccccc6n2c5c31)C(=O)NC4
91
